- experiment.description: qHTS Assay for Enhancers of SMN2 Splice Variant Expression; note: nearly all actives have a fitted effect of over 55% in size
- recorded.conditions: HEK293 SMN2-luciferase splicing reporter, luminescence, 30-36 h; series mostly up to 46.1 µM
The campaign covered roughly 210,000 compounds. About 5,900 (2.8%) were called active. Inconclusive results (about 5%) are left out. Calls come from the whole dose curve; as a rule, active = well fitted activation curve with a large enough effect; inconclusive = small, poorly fitted or top-dose-only effect; inactive = no such curve, though single readings can be large or run the other way. What follows is part of a selection rich in actives, with near analogues and random picks from the rest.
Tick one outcome: active, inactive

Task: Please share the test call associated with Cn1nnc2cc(C(=O)NCCC3=CCCCC3)ccc21 .
Output: active

Task: Also, COc1ccc(Cl)cc1NC(=O)CSc1nc(-c2cccs2)cc(C(F)(F)F)n1 please.
Output: inactive

Task: Also, CCOc1ccc(C(=O)c2cn(Cc3ccccc3OC)c3ccc(F)cc3c2=O)cc1 please.
Output: inactive

Task: Also, CCOc1cc(C2c3c(-c4ccc(Br)cc4)n[nH]c3C(=O)N2c2ccc(Cl)cc2)ccc1O (stereo not given) please.
Output: inactive

Task: Also, Cc1ccc(-c2noc(CSc3nnc(-c4ccc(Cl)cc4)n3C)n2)cc1 please.
Output: inactive

Task: Also, CCOc1ccc(-c2cc3nc(C4CCN(C(=O)OC(C)(C)C)CC4)c(C(=O)Nc4ccc(C(=O)OC)cc4)cn3n2)cc1 please.
Output: inactive

Task: Also, CN(c1ccc(C(=O)NCCC2=CCCCC2)cc1)S(C)(=O)=O please.
Output: active

Task: Also, COc1cccc(CNC(=O)CCC(=O)N2CC3CCCN3c3ccccc32)c1 (stereo not given) please.
Output: inactive

Task: Also, O=C(Cc1nn[nH]n1)NCCC1=CCCCC1 please.
Output: inactive

Task: Also, CCc1cc2c(cc(C(=O)OC)n2Cc2nc(-c3ccc(C)cc3)oc2C)s1 please.
Output: inactive
